Provide the recorded Plant response rating (0 = no effect, 100 = complete control), Kochia for the entries that follow.
- Test system: kochia
- Assay remarks: Test C pre-/postemergence herbicide test
- Format: in vivo, Kochia scoparia
- Experimental parameters: 62 g ai/ha; preemergence

Molecule	Result
CCn1nc(C(C)(C)C)cc1C(=O)Nc1cccc2c1CCN(C1CC1)C2=O [Compound 64]	0
CCNC(=O)c1ccc(F)c(NC(=O)c2cc(C(C)(C)C)nn2CC)c1 [Compound 2]	100
C#CCNC(=O)c1cccc(NC(=O)c2cc(C(C)(C)C)nn2CC)c1 [Compound 47]	10
C=CCNC(=O)c1cccc(NC(=O)c2cc(C(C)(C)C)nn2CC)c1 [Compound 46]	0
CC(=NO)c1cccc(NC(=O)c2cc(C(C)(C)C)nn2CCF)c1 [Compound 115]	100
CCn1nc(C(C)(C)C)cc1C(=O)Nc1cccc2c1CN(C)C2=O [Compound 55]	25
CCn1nc(C(C)(C)C)cc1C(=O)Nc1cccc(SC(F)(F)F)c1 [Compound 130]	0

Now, please, on to the next molecule.
Entry under test: CCNC(=O)c1cc(NC(=O)c2cc(C(C)(C)C)nn2CC)ccc1F [Compound 58] . Its Plant response rating (0 = no effect, 100 = complete control), Kochia was 95

* * *

Please respond with reported Plant response rating, Barnyardgrass for every item in the list.
- Tested on: barnyardgrass
- Assay remarks: Test B pre-/postemergence herbicide test
- Assay type: in vivo, Echinochloa crus-galli
- Experimental parameters: Postemergence, 500 g ai/ha; visual rating after 13 to 15 days, scale 0 (no effect) to 100 (complete control)
Give bare numbers.

Compound	Assayed system	Readout kind	Quantitative result
CCOC(=O)c1cccc(NC(=O)c2cc(C(C)(C)C)nn2CC)c1OC [Compound 97]	barnyardgrass	Plant response rating, Barnyardgrass	0
CCCN1CCc2c(NC(=O)c3cc(C(C)(C)C)nn3CC)cccc2C1=O [Compound 65]	barnyardgrass	Plant response rating, Barnyardgrass	10
CCCOC(=O)c1cccc(NC(=O)c2cc(C(C)(C)C)nn2CC)c1C [Compound 90]	barnyardgrass	Plant response rating, Barnyardgrass	30
CCN(C)C(=O)c1cccc(NC(=O)c2cc(C(C)(C)C)nn2CC)c1 [Compound 48]	barnyardgrass	Plant response rating, Barnyardgrass	60

Consider the record given below.
Item: CCOC(=O)c1ccc(F)c(NC(=O)c2cc(C(C)(C)C)nn2CC)c1 [Compound 70] | Plant response rating, Barnyardgrass: 20

* * *

- Test system: giant foxtail
- Assay remarks: Test B pre-/postemergence herbicide test
- Type: in vivo, Setaria faberi
- Experimental parameters: postemergence, 500 g ai/ha; scale 0 to 100, 0 is no effect, 100 is complete control
- Protocol: […] At the same time, plants selected from these crop and weed species and also blackgrass (Alopecurus myosuroides Huds.), wheat (Triticum aestivum L.) and wild oat (Avena fatua L.) were treated with postemergence applications of test chemicals formulated in the same manner. […] Treated plants and controls were maintained in a greenhouse for 13 to 15 days, after which time all species were compared to controls and visually evaluated. […]
Readout kind: Foxtail, Giant plant response rating
Numbers only.

Answered examples (2):
Molecule	Readout kind	Quantitative result
CCN(C)C(=O)c1ccc(F)c(NC(=O)C2CC(C(C)(C)C)=NN2CC)c1 (racemic)	Foxtail, Giant plant response rating	30
CCc1nn(C(C)(C)C)nc1C(=O)Nc1cccc(C(=O)N(C)CC)c1	Foxtail, Giant plant response rating	30

Hey, quick one: what's Foxtail, Giant plant response rating for each of these?
1. CCc1nn(C(C)(C)C)cc1C(=O)Nc1ccc(F)c(C(=O)N(CC)CC)c1
2. CCNC(=O)c1ccc(F)c(NC(=O)c2nn(C(C)(C)C)nc2CC)c1

Outgoing:
[0, 10]

Would you mind listing Foxtail, Giant plant response rating for each of the following molecules?
1. CCC1=NN(C(C)(C)C)CC1C(=O)Nc1cc(C(=O)N(C)C)ccc1F (racemic)
2. CCOC(=O)c1ccc(F)c(NC(=O)c2nn(C(C)(C)CC)nc2CC)c1
3. C=CCNC(=O)c1ccc(F)c(NC(=O)c2nn(C(C)(C)C)nc2CC)c1
4. CCNC(=O)c1ccc(OC)c(NC(=O)c2cc(C(C)(C)C)nn2CC)n1

Outgoing:
1. 50
2. 30
3. 0
4. 20

Each recorded value in this set is attributed to patent US20060069132A1.
